ENDPOINT LABEL: melting point

# example entries with known answers
{"MOLECULE": "CCCCCCCCCCOc1cc2c(cc1CCC(=O)O)C(=O)c1cc(C(=O)O)ccc1-2", "melting point": "218 to 220 °C"}
{"MOLECULE": "O=[N+]([O-])c1cc(C(F)(F)F)ccc1NCCCN1CCN(C(c2ccccc2)c2ccccc2)CC1", "melting point": "114 °C"}
{"MOLECULE": "O=C(CC1CCCCCC1)Nc1cn(CCO)c2cccc(Cl)c12", "melting point": "79 to 83 °C"}
{"MOLECULE": "Cn1cc(C(=O)O)c(=O)c2c3cc(N4CCC[C@H]4CNc4ccccc4)c(F)cc3ncc21", "melting point": "250 °C"}
{"MOLECULE": "CN(C=O)C1C(O)CC2C3CCc4cc(O)ccc4C3CCC21C (stereo not given)", "melting point": "272 to 276 °C"}
{"MOLECULE": "CN1C(=S)C(C)(C)N=C1SCc1ccccc1N(C)C", "melting point": "76 to 78 °C"}

Moving on to another molecule below.
Query: Field request: melting point | item: COc1cc(C=CC=O)cc(OC)c1OCc1ccccc1
Result: 114 to 115 °C

* * *

ENDPOINT LABEL: melting point

# example entries with known answers
{"MOLECULE": "O=CN(CCl)c1ccccc1", "OBSERVED": "67 °C"}
{"MOLECULE": "Cc1oc(-c2ccccc2)nc1COc1ccc(Cn2cc(CO)c(C(C)C)n2)cc1", "OBSERVED": "98 to 99 °C"}
{"MOLECULE": "Cc1c(NC(=O)c2ccc(-c3ccccc3F)cc2F)ccc2cc(CN3CCCC3)cnc12", "OBSERVED": "159 to 160 °C"}

Query: Field request: melting point | item: O=C1CCCCC1C(C[N+](=O)[O-])c1ccc(Cl)cc1 (racemic)
Result: 96 to 97 °C

Query: Try O=C(Nc1ccc(F)cc1F)Nc1cnc2cnccc2c1-c1ccccc1Cl next.
Result: 213 to 216 °C

Query: Try CCCCCC(=O)Nc1ccc(C(=O)NN=C2C(=O)Nc3ccc(I)cc32)cc1 next.
Result: 305 °C

Query: Try CN1CN(C(=O)c2c(F)cccc2F)C(=O)N(c2ccc(Cl)cc2)C1 next.
Result: 140 °C

Query: Try C=CCOc1c(OC)cc([C@H]2CC[C@H](c3cc(OC)c(OC)c(OC)c3)O2)cc1S(C)(=O)=O (relative stereo) next.
Result: 97 to 98 °C

Query: Try Cc1c(C(O)C2CCc3cc4ccccc4n3C2=O)ncn1C(c1ccccc1)(c1ccccc1)c1ccccc1 (centres undefined) next.
Result: 85 to 90 °C

Query: Try COC(=O)Nc1cccc(OC(=O)N(CCC#N)c2ccccc2)c1 next.
Result: 98 to 99 °C

Query: Try CO[C@]12C[C@@H](CN3CCC(O)(c4ccc(Cl)c(C(F)(F)F)c4)CC3)CN(C)[C@@H]1Cc1c[nH]c3cccc2c13 next.
Result: 143 to 146 °C

Query: Try O=C(NC1CCCCC1)NS(=O)(=O)c1ccc(CCNC(=O)N2CCCCC2=O)cc1 next.
Result: 197 to 199 °C

Query: Try Cn1c(C(F)(F)F)cc(=O)n(-c2cc(Oc3ccccc3O)c(Cl)cc2F)c1=O next.
Result: 55.4 °C

Query: Try O=C1c2c(F)c(F)c(F)c(F)c2C(=O)N1c1c[nH]c(=O)[nH]c1=O next.
Result: 350 to 355 °C

Query: Try CN1CCN(c2ccc(I)nn2)CC1 next.
Result: 149 °C

Query: Try CCOC(=O)c1nc(NC)sc1C(=O)C(C)Br (centres undefined) next.
Result: 104 to 106 °C

Query: Try O=C(Nc1cccc(C(F)(F)F)c1)Nc1ccc(Oc2ncnc3ccn(CCOCCO)c23)cc1Cl next.
Result: 170 to 174 °C

Query: Try C=CCCOc1ccc(C[C@H](NC(=O)OC(C)(C)C)C(=O)O)cc1 next.
Result: 148 to 150 °C

Query: Try O=C1C(Cl)=C(Nc2ccc(S(=O)(=O)Nc3ccccc3)cc2)C(=O)c2ccccc21 next.
Result: 220 to 223 °C

Values from a melting point compilation (Tetko et al.; mined from patent text by program, amines drawn as free bases though some values may be those of a salt)
